System: immunoglobulin light chain protein WIL-FL T46L
EXPERIMENT_DESCRIPTION: Differential scanning fluorimetry (thermal shift) assay
Type: binding
TEST_CONDITIONS: Table B; temperature shift [Tm]compound-[Tm]vehicle; recombinant WIL-FL T46L
VALUE_KIND: DSF

# COMPOUND, VALUE_KIND, DATA_VALUE
records = [
    ("Cc1cc(N2CC[C@](C)(c3ccccc3)C2)cn2nc(C(=O)N3CCC4(CCCC(C(=O)O)C4)C3)nc12 (stereo partly drawn)", "DSF", "***** (>2.5° C.=*****)"),
    ("Cc1cc(N2CC[C@](C)(c3ccccc3)C2)cn2nc(C34CC(CO3)C4c3nc(N)nn3S(=O)(=O)C3CC(C)(C(=O)O)C3)nc12 (stereo partly drawn)", "DSF", "***** (>2.5° C.=*****)"),
    ("Cc1cc(N2CC[C@](C)(c3ccccc3)C2)cn2nc(C34CC(CO3)C4N3CC4(CN(c5cccc(C(=O)O)n5)C4)NC3=O)nc12 (stereo partly drawn)", "DSF", "***** (>2.5° C.=*****)"),
]

* * *

Test system: immunoglobulin light chain protein WIL-FL T46L
EXPERIMENT_DESCRIPTION: Differential scanning fluorimetry (thermal shift) assay
Assay type: binding
TEST_CONDITIONS: Table B; temperature shift [Tm]compound-[Tm]vehicle; recombinant WIL-FL T46L
VALUE_KIND: DSF

# COMPOUND, DATA_VALUE
data = [
    ("Cc1cc(N2CC[C@](C)(c3ccccc3)C2)cn2nc(C(=O)N3CC[C@@]4(CCN(C5CC(C)(C(=O)O)C5)C4)C3)nc12 (stereo partly drawn) [Compound 725]", "***** (>2.5° C.=*****)"),
    ("Cc1cc(N2CC[C@](C)(c3ccccc3)C2)cn2nc(C34CC(CC(=O)Nc5cccc(C(=O)O)n5)(CO3)C4)nc12 [Compound 460]", "***** (>2.5° C.=*****)"),
    ("Cc1cc(N2CC[C@](C)(c3ccccc3)C2)cn2nc(C34CC(CO3)C4c3nc(NC(=O)c4cccc(C(=O)O)n4)n[nH]3)nc12 (stereo partly drawn) [Compound 549]", "***** (>2.5° C.=*****)"),
]

* * *

Test system: immunoglobulin light chain protein WIL-FL T46L
EXPERIMENT_DESCRIPTION: Differential scanning fluorimetry (thermal shift) assay
Format: binding
TEST_CONDITIONS: Table B; temperature shift [Tm]compound-[Tm]vehicle; recombinant WIL-FL T46L

# MOLECULE, DSF
rows = [
    ("Cc1cc(N2CC[C@](C)(c3ccccc3F)C2)cn2nc(C(=O)N3CC[C@@]4(CCN(c5cccc(C(=O)O)n5)C4)C3)nc12 [Compound 749]", "***** (>2.5° C.=*****)"),
    ("Cc1cc(N2CC[C@](C)(c3ccccc3)C2)cn2nc(C(=O)NC3CC4(C3)CN(C(=O)CC(C)(C)C(=O)O)C4)nc12 [Compound 601]", "***** (>2.5° C.=*****)"),
    ("Cc1cc(N2CC[C@](C)(c3ccccc3)C2)cn2nc(C(=O)N3CCc4c(nnn4-c4ccnc(C(=O)O)c4)C3)nc12 [Compound 639]", "***** (>2.5° C.=*****)"),
]

* * *

Test system: immunoglobulin light chain protein WIL-FL T46L
EXPERIMENT_DESCRIPTION: Differential scanning fluorimetry (thermal shift) assay
Format: binding
TEST_CONDITIONS: Table B; temperature shift [Tm]compound-[Tm]vehicle; recombinant WIL-FL T46L
VALUE_KIND: DSF

Some molecules with known DSF results, for comparison:
# MOLECULE, DSF
rows = [
    ("Cc1nc([C@H]2[C@]3(CO)CO[C@@]2(c2nc4c(C)cc(N5CC[C@](C)(c6ccccc6)C5)cn4n2)C3)n[nH]1", "***** (>2.5° C.=*****)"),
    ("Cc1cc(N2CC[C@](C)(c3ccccc3)C2)cn2nc(C(=O)N3CCCN(c4ccc(C(=O)O)cn4)CC3)nc12", "***** (>2.5° C.=*****)"),
    ("COc1ccc(N2CCC3(CCN(C(=O)c4nc5c(C)cc(N6CC[C@](C)(c7ccccc7)C6)cn5n4)C3)C2)nc1C(=O)O (stereo partly shown)", "***** (>2.5° C.=*****)"),
    ("Cc1cc(N2CC[C@](C)(c3ccccc3)C2)cn2nc(C34CC(CO3)C4c3nc(NC(=O)C4CC(C(=O)O)C4)n[nH]3)nc12 (stereo partly shown)", "***** (>2.5° C.=*****)"),
    ("Cc1cc(N2CC[C@](C)(c3ccccc3)C2)cn2nc(C(=O)N3CC[C@@]4(CCN(C(=O)C5CC56CC(C(=O)O)C6)C4)C3)nc12 (stereo partly shown)", "***** (>2.5° C.=*****)"),
    ("Cc1cc(N2CC[C@](C)(c3ccccc3)C2)cn2nc(C(=O)N3CCC4(CCC(O)(c5cccc(C(=O)O)n5)C4)C3)nc12 (stereo partly shown)", "***** (>2.5° C.=*****)"),
]

# get_value(readout= DSF, system= immunoglobulin light chain protein WIL-FL T46L) for COC(C)(CC(=O)N1CC2(CC(NC(=O)c3nc4c(C)cc(N5CC[C@](C)(c6ccccc6)C5)cn4n3)C2)C1)C(=O)O (stereo partly shown)
***** (>2.5° C.=*****)

Let us now turn to Cc1cc(N2CC[C@](C)(c3ccccc3)C2)cn2nc(C(=O)N3CCC4(CCCN4c4cccc(C(=O)O)n4)C3)nc12 (stereo partly shown)
***** (>2.5° C.=*****)

Quick one: Cc1cc(N2CC[C@](C)(c3ccccc3)C2)cn2nc(C34CC(CO)(CO3)C4C(=O)O)nc12 (stereo partly shown)
***** (>2.5° C.=*****)

Now the molecule Cc1cc(N2CC[C@](C)(c3cccc(F)c3)C2)cn2nc(C(=O)NC3CCN(c4cccc(C(=O)O)n4)CC34COC4)nc12 (stereo partly shown)
***** (>2.5° C.=*****)

Lookup Cc1cc(N2CC[C@](C)(c3ccccc3)C2)cn2nc(C(=O)NC3CCC4CCC3N4c3cccc(C(=O)O)n3)nc12 (stereo partly shown)
***** (>2.5° C.=*****)

What do you have for Cc1cc(N2CC[C@](C)(c3ccccc3)C2)cn2nc(C(=O)N3CC[C@@]4(CCN(C(=O)C5CC(C)(C(=O)O)C5)C4)C3)nc12 (stereo partly shown) ?
***** (>2.5° C.=*****)

* * *

Tested on: immunoglobulin light chain protein WIL-FL T46L
EXPERIMENT_DESCRIPTION: Differential scanning fluorimetry (thermal shift) assay
Format: binding
TEST_CONDITIONS: Table B; temperature shift [Tm]compound-[Tm]vehicle; recombinant WIL-FL T46L
VALUE_KIND: DSF

# COMPOUND, ASSAYED_SYSTEM, DSF
records = [
    ("Cc1cc(N2CC3(CCC3c3cccc(Cl)c3)C2)cn2nc(C(=O)N3CC[C@@]4(CCN(c5cccc(C(=O)O)n5)C4)C3)nc12 (some centres unmarked)", "immunoglobulin light chain protein WIL-FL T46L", "**** (>1.5-2.5° C.=****)"),
    ("Cc1cc(N2CC[C@](C)(c3ccccc3)C2)cn2nc(C(=O)NC3CC4(C3)CN(C(=O)C3CC(C)(C(=O)O)C3)C4)nc12 (some centres unmarked)", "immunoglobulin light chain protein WIL-FL T46L", "***** (>2.5° C.=*****)"),
    ("Cc1cc(N2CC[C@](C)(c3ccccc3Cl)C2)cn2nc(C34CC(CO3)C4N3CC4(CC4)NC3=O)nc12 (some centres unmarked)", "immunoglobulin light chain protein WIL-FL T46L", "***** (>2.5° C.=*****)"),
    ("Cc1cc(N2CC[C@](C)(c3ccccc3)C2)cn2nc(C34CC(CO3)C4N3CCOCC3)nc12 (some centres unmarked)", "immunoglobulin light chain protein WIL-FL T46L", "***** (>2.5° C.=*****)"),
    ("COc1cc(N2C[C@H]3CN(C(=O)c4nc5c(C)cc(N6CC[C@](C)(c7ccccc7)C6)cn5n4)C[C@H]3C2)cc(C(=O)O)n1", "immunoglobulin light chain protein WIL-FL T46L", "***** (>2.5° C.=*****)"),
    ("COC(C)(CS(=O)(=O)Nc1n[nH]c(C2C3COC2(c2nc4c(C)cc(N5CC[C@](C)(c6ccccc6)C5)cn4n2)C3)n1)C(=O)O (some centres unmarked)", "immunoglobulin light chain protein WIL-FL T46L", "**** (>1.5-2.5° C.=****)"),
    ("Cc1nc(C2C3COC2(c2nc4c(C)cc(N5CC[C@](C)(c6ccccc6)C5)cn4n2)C3)n(C)n1 (some centres unmarked)", "immunoglobulin light chain protein WIL-FL T46L", "***** (>2.5° C.=*****)"),
    ("Cc1ccc(N2CC[C@@]3(CCN(C(=O)c4nc5c(C)cc(N6CC[C@](C)(c7ccccc7)C6)cn5n4)C3)C2)nc1C(=O)O", "immunoglobulin light chain protein WIL-FL T46L", "***** (>2.5° C.=*****)"),
    ("Cc1cc(N2CC[C@](C)(c3ccccc3)C2)cn2nc(C(=O)NC3CN(c4cccc(C(=O)O)n4)CC34COC4)nc12 (some centres unmarked)", "immunoglobulin light chain protein WIL-FL T46L", "***** (>2.5° C.=*****)"),
    ("Cc1cc(N2CC3(CCC3c3cccc(F)c3)C2)cn2nc(C(=O)N3CC[C@@]4(CCN(c5cccc(C(=O)O)n5)C4)C3)nc12 (some centres unmarked) [Compound 737]", "immunoglobulin light chain protein WIL-FL T46L", "***** (>2.5° C.=*****)"),
]

Name the recorded DSF for CNC(=O)C12CC(NC(=O)c3nc4c(C)cc(N5CC[C@](C)(c6ccccc6)C5)cn4n3)(CO1)C2 .
***** (>2.5° C.=*****)

And Cc1cc(N2CC[C@](C)(c3ccccc3)C2)cn2nc([C@]34C[C@H](CO3)[C@@H]4N3CC4(CN(c5cccc(C(=O)O)n5)C4)NC3=O)nc12 ?
***** (>2.5° C.=*****)

Now the same for Cc1cc(N2CC[C@](C)(c3ccccc3)C2)cn2nc(C(=O)NC3CC4(CCN(c5cccc(C(=O)O)n5)CC4)C3)nc12
***** (>2.5° C.=*****)

Follow-up entry: Cc1cc(N2CCC(C)(n3ccc(C(F)F)n3)C2)cn2nc(C(=O)N3CC[C@@]4(CCN(c5cccc(C(=O)O)n5)C4)C3)nc12 (some centres unmarked)
**** (>1.5-2.5° C.=****)

Next: Cc1cc(N2CC[C@](C)(c3ccccc3)C2)cn2nc(C(=O)N[C@@H]3CN(c4cccc(C(=O)O)n4)CC3(C)C)nc12
***** (>2.5° C.=*****)

Same thing, different compound: Cc1cc(N2CC[C@](C)(n3ccc(C(F)(F)F)n3)C2)cn2nc(C(=O)N3CC[C@@]4(CCN(c5cccc(C(=O)O)n5)C4)C3)nc12
***** (>2.5° C.=*****)

Reference for the values: patent US20260285857A1
